tested on: DeltatarO mutant; assay: S. aureus survival, RN4220 and DeltatarO strains – OD600, teichoic acid synthesis inhibitors, primary screen (AID 463173); details: S. aureus RN4220 wild type/DeltatarO growth, OD600, 18 h, screened at 18.75 µg/mL (by protocol)
Screen size: about 52,000 compounds; about 4,300 (8.3%) were called active. Rule as the data show it: active = survival mostly below about 52% (no sharp cut-off); inactive = mostly above about 56%. The full list was thinned out, with actives kept by preference.
Outcome codes: active, inactive

{"compound": "COc1ccc(CNc2nc3ccccc3c3nc(-c4ccccc4)nn23)cc1", "answer-label": "active"}
{"compound": "Cc1ccc(NC(=O)C2CCN(S(=O)(=O)c3c(C)noc3C)CC2)cc1C", "answer-label": "inactive"}
{"compound": "CCC(=O)N1CCc2cc(Br)cc(S(=O)(=O)CCC(=O)Nc3ccc(C)c(F)c3)c21", "answer-label": "inactive"}
{"compound": "Cc1ccc(CNc2cc(C)nc3nc(-c4cccc(C)c4)nn23)cc1", "answer-label": "inactive"}
{"compound": "COc1ccc2oc(=O)cc(CN3CCN(c4ccccc4OC)CC3)c2c1", "answer-label": "inactive"}
{"compound": "COc1ccc2oc(=O)cc(CN3CCN(C(=O)c4ccccc4F)CC3)c2c1", "answer-label": "active"}
{"compound": "O=C(COCc1cc(-c2ccc3c(c2)OCO3)on1)NCc1ccc(F)cc1", "answer-label": "inactive"}
{"compound": "Clc1ccccc1CNc1nc2ccccc2c2nc(-c3ccccc3)nn12", "answer-label": "inactive"}
{"compound": "Cc1cccc(NS(=O)(=O)c2ccc3c(c2)CC(C)N3C(=O)C2CCC2)c1C (stereo not given)", "answer-label": "inactive"}
{"compound": "CCOc1ccccc1C(=O)Nc1ccc(S(=O)(=O)Nc2ncccn2)cc1", "answer-label": "inactive"}
{"compound": "CC(=O)N1CCc2cc(S(=O)(=O)NC(CC(C)C)C(=O)Nc3ccc(C(C)C)cc3)ccc21 (stereo not given)", "answer-label": "inactive"}
{"compound": "Cc1cccc(-c2nc(C)c(CCNC(=O)C(=O)Nc3ccc(C)c(C)c3)s2)c1", "answer-label": "inactive"}
{"compound": "CCC(Sc1ncnc2sc3c(c12)CCCC3)C(=O)OC(C)C (stereo not given)", "answer-label": "active"}
{"compound": "O=C(c1nc(-c2ccc(Cl)cc2)n2c1CCCCC2)N1CCN(c2ccccc2)CC1", "answer-label": "inactive"}
{"compound": "COCCn1c(CCC(=O)Nc2ccc(C)c(Cl)c2)nc2cccnc21", "answer-label": "inactive"}
{"compound": "Cc1nc2sc(C(=O)N(C)c3ccccc3)c(NC(=O)c3ccccc3Cl)c2c(C)c1C", "answer-label": "inactive"}
{"compound": "Clc1ncnc2sc3c(c12)CCCC3", "answer-label": "inactive"}
{"compound": "Cc1cccc(-c2nc3c4ccccc4nc(NCc4ccc(F)cc4)n3n2)c1", "answer-label": "inactive"}
{"compound": "COc1cccc(N2CCN(c3ncnc4onc(-c5ccc(F)cc5)c34)CC2)c1", "answer-label": "inactive"}
{"compound": "Cc1ccc(CNc2cc(C)nc3nc(-c4ccc(C)cc4)nn23)cc1", "answer-label": "inactive"}
{"compound": "COC(=O)C(C)n1cnc2sc3c(c2c1=O)CCCC3 (stereo not given)", "answer-label": "inactive"}
{"compound": "COc1ccccc1CNC(=O)COCc1cc(-c2ccc3c(c2)OCO3)on1", "answer-label": "active"}
{"compound": "NS(=O)(=O)c1ccc(CCNC(=O)c2nc(SCc3ccccc3F)ncc2Cl)cc1", "answer-label": "inactive"}
{"compound": "CCOC(=O)c1c(C)n(C(=O)c2ccco2)c(=O)n1C(=O)c1ccco1", "answer-label": "inactive"}
{"compound": "Cc1cccc(Cn2c(=O)n(Cc3ccc4c(c3)OCO4)c(=O)c3oc4ccccc4c32)c1", "answer-label": "inactive"}
